Tested on: Enterococcus faecalis 9790
Experiment: MIC, serial dilution on Iso-Sensitest agar
Format: cell-based
Details: Enterococcus faecalis 9790; approx. 10^4 CFU per inoculation point; 37° C., approx. 20 hours; read-out: MIC
For each entry below, report its MIC value.
Give bare numbers, in µg/mL.

Example compounds with recorded MIC:
>  <Compound>
C#Cc1c(N2CC3NCCOC3C2)c(F)cc2c(=O)c(C(=O)O)cn(C3CC3)c12 (stereo not shown)

>  <Recorded endpoint>
MIC

>  <Reported>
0.25

$$$$
>  <Compound>
CC#Cc1c(N2CC3NCCOC3C2)c(F)cc2c(=O)c(C(=O)O)cn(C3CC3)c12 (stereo not shown)

>  <Recorded endpoint>
MIC

>  <Reported>
1

$$$$

# batch size: 4; output MIC per entry
1. C#Cc1c(N2CC3CC=CC(NC)C3C2)c(F)cc2c(=O)c(C(=O)O)cn(C3CC3)c12 (stereo not shown)
2. C#Cc1c(N2CCN(C)CC2)c(F)cc2c(=O)c(C(=O)O)cn(C3CC3)c12
3. C=C(C)C#Cc1c(N2CCN(C)CC2)c(F)cc2c(=O)c(C(=O)O)cn(C3CC3)c12
4. C#Cc1c(N2C[C@@H]3CCCN[C@@H]3C2)c(F)cc2c(=O)c(C(=O)O)cn(C3CC3)c12 (relative stereo)

[0.13, 0.25, 1, 0.13]

Consider the compound C=C(Cl)c1c(N2CCN(C)CC2)c(F)cc2c(=O)c(C(=O)O)cn(C3CC3)c12.Cl . State its measured MIC.
0.25

====

Would you mind telling me the reported MIC of each entry?
Test system: Staphylococcus aureus 1756
Experiment: MIC, serial dilution on Iso-Sensitest agar
Type: cell-based
Settings: Staphylococcus aureus 1756; approx. 10^4 CFU per inoculation point; 37° C., approx. 20 hours; read-out: MIC
Give bare numbers, in mg/L.

Record excerpt, results attached:
>  <Compound>
C#Cc1c(N2CCN(C)CC2)c(F)cc2c(=O)c(C(=O)O)cn(C3CC3)c12

>  <Units>
mg/L

>  <MIC>
0.13

$$$$
>  <Compound>
C=C(Cl)c1c(N2CCN(C)CC2)c(F)cc2c(=O)c(C(=O)O)cn(C3CC3)c12.Cl

>  <Units>
mg/L

>  <MIC>
0.13

$$$$
>  <Compound>
C#Cc1c(N2C[C@@H]3CCCN[C@@H]3C2)c(F)cc2c(=O)c(C(=O)O)cn(C3CC3)c12 (relative stereo)

>  <Units>
mg/L

>  <MIC>
0.03

$$$$
>  <Compound>
C#Cc1c(N2CC3NCCOC3C2)c(F)cc2c(=O)c(C(=O)O)cn(C3CC3)c12 (stereo not shown)

>  <Units>
mg/L

>  <MIC>
0.06

$$$$
>  <Compound>
C=C(C)C#Cc1c(N2CCN(C)CC2)c(F)cc2c(=O)c(C(=O)O)cn(C3CC3)c12

>  <Units>
mg/L

>  <MIC>
0.02

$$$$

Provide each entry's MIC from the list below.
1. C#Cc1c(N2CC3CC=CC(NC)C3C2)c(F)cc2c(=O)c(C(=O)O)cn(C3CC3)c12 (stereo not shown)
2. CC#Cc1c(N2CC3NCCOC3C2)c(F)cc2c(=O)c(C(=O)O)cn(C3CC3)c12 (stereo not shown)

0.06
0.13
